Assay: physchem
Details: PBS, pH 7.4
For each entry below, report its half-life at 1 μM value.

Sample Cc1nc(C(=N)NOC(=O)c2c(-c3c(Cl)cccc3Cl)noc2C)cs1 [Compound K18] ; half-life at 1 μM observed: > 4 h

Sample CC(C)[N+](C)(CCOC(=O)C1c2ccccc2Oc2ccccc21)C(C)C [propantheline, reference compound] ; half-life at 1 μM observed: > 4 h

###

Target: A3R (Homo sapiens)
Settings: 10 μM forskolin + NECA IC80 + 1 μM compound
For each entry below, report its cAMP accumulation Mean difference between 'NECA' and compound value.
Provide the reading as a plain figure in %10 μM forskolin response.

Sample COc1ccc(CSC(=N)Nc2ccccc2Cl)cc1.Cl ; cAMP accumulation Mean difference between 'NECA' and compound observed: -7.96

Sample COc1cccc(C=NNC(=O)c2cc(-c3ccccc3)sc2N)c1 ; cAMP accumulation Mean difference between 'NECA' and compound observed: -13.22

Sample O=C(Nc1ccc(OC(F)(F)F)cc1)Nc1cc(-c2cccs2)n[nH]1 ; cAMP accumulation Mean difference between 'NECA' and compound observed: -3.69

Sample Nc1sc(-c2ccccc2)cc1C(=O)NN=Cc1ccccc1 ; cAMP accumulation Mean difference between 'NECA' and compound observed: -10.24

Sample COc1ccccc1N=C(N)SCc1ccccc1 ; cAMP accumulation Mean difference between 'NECA' and compound observed: -4.26

Sample CCC(C)CC(=O)Nc1ccsc1C(N)=O (stereo not shown) ; cAMP accumulation Mean difference between 'NECA' and compound observed: -11.24

Sample COc1ccc(CCNC(=O)c2c(N)sc3c2CCC3)cc1OC ; cAMP accumulation Mean difference between 'NECA' and compound observed: 4.07

Sample COc1ccc(CCNC(=O)c2c(N)sc3c2CCCC3)cc1OC ; cAMP accumulation Mean difference between 'NECA' and compound observed: -0.77

Sample CCOC(=O)CC(=O)Nc1ccsc1C(N)=O ; cAMP accumulation Mean difference between 'NECA' and compound observed: -3.82

Sample CC(C)(C)c1ccc(/C(N)=N/OC(=O)c2cnn(-c3ccccc3)c2C(F)(F)F)cc1 ; cAMP accumulation Mean difference between 'NECA' and compound observed: 8.93

Sample Nc1sccc1C(=O)NCCc1ccccc1 ; cAMP accumulation Mean difference between 'NECA' and compound observed: 0.66

Sample NNC(=O)c1sc(-c2ccccc2)cc1N ; cAMP accumulation Mean difference between 'NECA' and compound observed: 8.81

Sample N/C(=N\OC(=O)c1ccc(-c2ccccc2)cc1)c1ccc(Br)cc1 ; cAMP accumulation Mean difference between 'NECA' and compound observed: -1.64

Sample NC(=NOC(=O)c1csnn1)c1ccc(-c2csnn2)cc1 ; cAMP accumulation Mean difference between 'NECA' and compound observed: -3.05

Sample N/C(=N\OC(=O)c1ccccc1-c1ccccc1)c1cccnc1 ; cAMP accumulation Mean difference between 'NECA' and compound observed: -11.65

Sample NC(=NNC(=O)Nc1ccc(Cl)cc1)c1ccc(C(F)(F)F)cn1 ; cAMP accumulation Mean difference between 'NECA' and compound observed: 1.26

###

For each entry below, report its Ki value.
Molecular target: A1R (Homo sapiens)
Construct: expressed in transfected cells
Sequence (P30542 whole entry): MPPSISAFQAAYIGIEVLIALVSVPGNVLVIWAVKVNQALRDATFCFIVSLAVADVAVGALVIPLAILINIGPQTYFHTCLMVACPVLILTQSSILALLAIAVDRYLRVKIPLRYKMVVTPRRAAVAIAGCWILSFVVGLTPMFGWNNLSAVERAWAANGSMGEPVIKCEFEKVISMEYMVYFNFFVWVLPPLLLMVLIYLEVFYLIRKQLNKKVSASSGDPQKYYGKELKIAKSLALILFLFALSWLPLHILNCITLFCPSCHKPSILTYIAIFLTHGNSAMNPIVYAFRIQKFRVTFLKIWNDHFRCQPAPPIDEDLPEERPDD
Test: Radioligand binding at A1R ([3H]CCPA, CHO cell membranes)
Conditions: 1 nM [3H]CCPA; three independent experiments

Sample N/C(=N\OC(=O)c1ccccc1-c1ccccc1)c1cccnc1 ; Ki observed: > 100 µM

Sample N/C(=N\OC(=O)c1ccc(-c2ccccc2)cc1)c1ccc(Br)cc1 ; Ki observed: > 100 µM

Sample Cc1onc(-c2ccccc2Cl)c1C(=O)O/N=C(\N)c1ccccn1 ; Ki observed: > 100 µM

###

Biological target: A3R (Homo sapiens)
Sequence (P0DMS8 1-318): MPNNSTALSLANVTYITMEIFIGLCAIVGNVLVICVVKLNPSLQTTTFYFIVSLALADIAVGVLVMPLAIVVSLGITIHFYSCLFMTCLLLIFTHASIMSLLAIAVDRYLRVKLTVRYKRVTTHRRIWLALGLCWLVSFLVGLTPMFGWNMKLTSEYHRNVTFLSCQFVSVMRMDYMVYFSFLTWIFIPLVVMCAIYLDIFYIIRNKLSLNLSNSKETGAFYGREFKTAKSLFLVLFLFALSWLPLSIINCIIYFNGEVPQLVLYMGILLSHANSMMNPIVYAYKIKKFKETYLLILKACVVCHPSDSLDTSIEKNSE
Conditions: 10 μM forskolin + NECA IC80 (3.16 nM) + 1 μM compound; mean ± SEM, n = 3
measuredMetric: cAMP accumulation Mean

Sample Nc1sccc1C(=O)NCCc1ccccc1 ; cAMP accumulation Mean observed: 59.66 ±0.98 %10 μM forskolin response

Sample COc1cccc(C=NNC(=O)c2cc(-c3ccccc3)sc2N)c1 ; cAMP accumulation Mean observed: 73.54 ±2.98 %10 μM forskolin response

Sample COc1ccc(CCNC(=O)c2c(N)sc3c2CCC3)cc1OC ; cAMP accumulation Mean observed: 56.25 ±1.44 %10 μM forskolin response

Sample N/C(=N\OC(=O)c1ccc(-c2ccccc2)cc1)c1ccc(Br)cc1 ; cAMP accumulation Mean observed: 61.96 ±1.51 %10 μM forskolin response

Sample COc1ccccc1N=C(N)SCc1ccccc1 ; cAMP accumulation Mean observed: 64.58 ±4.94 %10 μM forskolin response

Sample CCOC(=O)CC(=O)Nc1ccsc1C(N)=O ; cAMP accumulation Mean observed: 64.14 ±1.73 %10 μM forskolin response

Sample COc1ccc(CSC(=N)Nc2ccccc2Cl)cc1.Cl ; cAMP accumulation Mean observed: 68.28 ±2.94 %10 μM forskolin response

Sample CC(C)(C)c1ccc(/C(N)=N/OC(=O)c2cnn(-c3ccccc3)c2C(F)(F)F)cc1 ; cAMP accumulation Mean observed: 51.39 ±3.11 %10 μM forskolin response

Sample CCC(C)CC(=O)Nc1ccsc1C(N)=O (stereo not shown) ; cAMP accumulation Mean observed: 71.56 ±3.54 %10 μM forskolin response

Sample N/C(=N\OC(=O)c1ccccc1-c1ccccc1)c1cccnc1 ; cAMP accumulation Mean observed: 71.97 ±4.74 %10 μM forskolin response

Sample Nc1sc(-c2ccccc2)cc1C(=O)NN=Cc1ccccc1 ; cAMP accumulation Mean observed: 70.56 ±3.64 %10 μM forskolin response

Sample NC(=NOC(=O)c1csnn1)c1ccc(-c2csnn2)cc1 ; cAMP accumulation Mean observed: 63.37 ±2.66 %10 μM forskolin response

Sample NNC(=O)c1sc(-c2ccccc2)cc1N ; cAMP accumulation Mean observed: 51.51 ±4.91 %10 μM forskolin response

Sample COc1ccc(CCNC(=O)c2c(N)sc3c2CCCC3)cc1OC ; cAMP accumulation Mean observed: 61.09 ±3.04 %10 μM forskolin response

Sample O=C(Nc1ccc(OC(F)(F)F)cc1)Nc1cc(-c2cccs2)n[nH]1 ; cAMP accumulation Mean observed: 64.01 ±5.22 %10 μM forskolin response

Sample NC(=NNC(=O)Nc1ccc(Cl)cc1)c1ccc(C(F)(F)F)cn1 ; cAMP accumulation Mean observed: 59.06 ±0.13 %10 μM forskolin response

###

Experiment: in vitro
Settings: human, plasma
measuredMetric: half-life at 1 μM (min)
Provide the reading as a plain figure in min.

Sample CC(C)[N+](C)(CCOC(=O)C1c2ccccc2Oc2ccccc21)C(C)C [propantheline, reference compound] ; half-life at 1 μM observed: 55
